molecular target: Cytochrome P450 1A2 (Homo sapiens) (UniProt P05177); assay: Cytochrome panel assay with activity outcomes; settings: recombinant CYP, pro-luciferin dealkylation, luminescence, p450-cyp1a2; series mostly up to 57.1 µM
Sequence (P05177 whole entry, looked up): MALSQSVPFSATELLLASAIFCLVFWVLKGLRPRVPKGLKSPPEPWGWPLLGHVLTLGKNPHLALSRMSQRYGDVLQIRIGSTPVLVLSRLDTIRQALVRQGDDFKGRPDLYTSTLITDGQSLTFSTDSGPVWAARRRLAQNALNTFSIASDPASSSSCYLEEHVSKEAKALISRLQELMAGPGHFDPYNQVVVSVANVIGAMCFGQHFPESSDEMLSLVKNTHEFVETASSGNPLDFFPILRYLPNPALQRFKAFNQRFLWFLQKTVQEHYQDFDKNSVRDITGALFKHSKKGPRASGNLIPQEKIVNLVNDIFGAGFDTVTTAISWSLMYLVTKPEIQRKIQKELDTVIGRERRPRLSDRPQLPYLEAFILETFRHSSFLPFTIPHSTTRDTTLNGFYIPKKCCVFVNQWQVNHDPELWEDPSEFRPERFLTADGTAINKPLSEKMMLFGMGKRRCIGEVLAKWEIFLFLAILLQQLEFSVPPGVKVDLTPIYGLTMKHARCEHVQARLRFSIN
Out of some 16,000 compounds screened, about 5,700 (36%) were called active. Roughly 24% stayed inconclusive and do not appear here. Calls follow the shape of the dose curve; as a rule, active = well fitted curve in the direction sought with a large enough effect; inconclusive = small, poorly fitted or top-dose-only effect, or effect the other way; inactive = no such curve, though single readings can be large or run the other way. The list shows a part of the results.
Please reply with one of these outcomes: active, inactive

Examples from the recorded data:
INSERT INTO measurements (compound, tested_target, label_value) VALUES
  ('COc1ccccc1-c1nnc(NC(C)=O)s1', 'Cytochrome P450 1A2 (Homo sapiens) (UniProt P05177)', 'active'),
  ('COc1ccc(-c2cc(C(F)(F)F)nc(SCc3cccc(C(=O)O)c3)n2)cc1', 'Cytochrome P450 1A2 (Homo sapiens) (UniProt P05177)', 'active'),
  ('COCC(C)NCc1cccc(C)c1 (stereo not drawn)', 'Cytochrome P450 1A2 (Homo sapiens) (UniProt P05177)', 'inactive'),
  ('O=c1c2c(-c3ccc(Cl)cc3)csc2nc2n1CCC2', 'Cytochrome P450 1A2 (Homo sapiens) (UniProt P05177)', 'active'),
  ('COc1ccc(CN(C(=O)Cc2cccs2)C(C(=O)NC2CCCC2)c2ccncc2)cc1 (stereo not drawn)', 'Cytochrome P450 1A2 (Homo sapiens) (UniProt P05177)', 'inactive'),
  ('COc1ccccc1CCn1c(=O)c(-c2ccc(F)cc2)nc2cncnc21', 'Cytochrome P450 1A2 (Homo sapiens) (UniProt P05177)', 'active'),
  ('CCCCCCCCCCCCC/C=C\[C@@H](O)[C@H](CO)NC(C)=O', 'Cytochrome P450 1A2 (Homo sapiens) (UniProt P05177)', 'active'),
  ('COc1cc(C(=O)NCC(c2cccnc2)N2CCN(C)CC2)cc(OC)c1OC (stereo not drawn)', 'Cytochrome P450 1A2 (Homo sapiens) (UniProt P05177)', 'active'),
  ('Cc1ccccc1N1CCN(S(=O)(=O)C[C@@]23CC[C@H](C[C@H]2NC(=O)[C@@H](N)CCS(C)(=O)=O)C3(C)C)CC1', 'Cytochrome P450 1A2 (Homo sapiens) (UniProt P05177)', 'inactive'),
  ('COC(=O)NCC(c1cccnc1)N1CCN(c2ccccc2OC)CC1 (stereo not drawn)', 'Cytochrome P450 1A2 (Homo sapiens) (UniProt P05177)', 'inactive');

Query: Called result for Cc1ccc(-n2c(SCC(=O)NCc3ccco3)nc3sc4c(c3c2=O)CC(C)(C)SC4)cc1
Reply: inactive

Query: Test call, this compound: CC(C)n1nnnc1SCC(=O)c1ccc2c(c1)OCCO2
Reply: active

Query: How was COc1ccccc1CCn1c(=O)c(-c2cccc(Cl)c2)nc2cncnc21 classified in this test?
Reply: active

====

biological target: Cytochrome P450 1A2 (Homo sapiens); assay: Cytochrome panel assay with activity outcomes; conditions: recombinant CYP, pro-luciferin dealkylation, luminescence, p450-cyp1a2; series mostly up to 57.1 µM
The campaign covered roughly 16,000 compounds. About 5,700 (36%) were called active. Inconclusive results (about 24%) are left out. Calls come from the whole dose curve; as a rule, active = well fitted curve in the direction sought with a large enough effect; inconclusive = small, poorly fitted or top-dose-only effect, or effect the other way; inactive = no such curve, though single readings can be large or run the other way. The list shows a part of the results.
Answer with one of the outcomes active, inactive

INSERT INTO measurements (compound, label_value) VALUES
  ('COc1ccc(NC(=O)CSC2=NC(=O)CC(C)=N2)cc1', 'inactive');

Query: What did this assay record as the result for Cc1cc(C)cc(N2C(=O)CC(Sc3nnnn3-c3ccccc3)C2=O)c1 (stereo unspecified) ?
Reply: inactive

Query: What did the test return for COc1ccc(/C=C(/C#N)C(=O)Nc2cc(C)ccc2C)cc1C(=O)O ?
Reply: inactive

Query: Tell me the recorded outcome of this test for CC(C)c1ccc(N(C(=O)C(F)(F)F)C(C(=O)NC2CCCCC2)c2ccncc2)cc1 (stereo unspecified) .
Reply: inactive

Query: Which outcome was assigned to O=c1cc(CO)oc(CN2CCCC2)c1O in this test?
Reply: inactive

Query: Short answer needed: outcome of this test for COc1ccc(N2C(=O)CC(S/C(N)=N/N=C(\C)c3cccs3)C2=O)cc1 (stereo unspecified) ?
Reply: active

Query: # fetch the recorded call for N#Cc1cccc(-c2cncnc2NCc2cccs2)c1 here
Reply: active

Query: Outcome? COc1cccc(Cn2c(=O)c(-c3cccc(C#N)c3)nc3cnc(Nc4ccccc4)nc32)c1
Reply: inactive

====

molecular target: Cytochrome P450 1A2 (Homo sapiens) (UniProt P05177); experiment: Cytochrome panel assay with activity outcomes; details: recombinant CYP, pro-luciferin dealkylation, luminescence, p450-cyp1a2; series mostly up to 57.1 µM
Hit rate of the full screen: of about 16,000 compounds, about 5,700 (36%) were called active. About 24% were inconclusive and are not listed. Calls follow the shape of the dose curve; as a rule, active = well fitted curve in the direction sought with a large enough effect; inconclusive = small, poorly fitted or top-dose-only effect, or effect the other way; inactive = no such curve, though single readings can be large or run the other way. The list shows a part of the results.
Reply using exactly one outcome from active, inactive

INSERT INTO assay_data (compound, label_value) VALUES
  ('COc1ccccc1CNc1cc(-c2ccccc2C)ncn1', 'active'),
  ('CCOC(=O)c1ccc(NC(=O)CC2NCCNC2=O)cc1 (stereo unspecified)', 'inactive'),
  ('Clc1ccc(-c2ccnc(Oc3cc(Cl)ccc3Cl)n2)cc1', 'active'),
  ('O=C(O)/C=C\c1ccc(O)c(O)c1', 'inactive'),
  ('NC(=O)C1(N2CCCCC2)CCN(C(=O)c2ccc(-n3cnnn3)cc2)CC1', 'inactive');

Query: Test call for this compound, please: CCc1c(C)c2c(C)[nH]nc2oc1=O
Reply: active

Query: Check the results log: what was the call for CCN(CC)CCNC(=O)c1cc(S(C)(=O)=O)ccc1OC ?
Reply: inactive

Query: Any idea what this test logged for CC(=O)NCCNc1cc(-c2ccccc2CN(C)C)ncn1 ?
Reply: inactive

====

target: Cytochrome P450 1A2 (Homo sapiens) (UniProt P05177); test: Cytochrome panel assay with activity outcomes; conditions: recombinant CYP, pro-luciferin dealkylation, luminescence, p450-cyp1a2; series mostly up to 57.1 µM
Out of some 16,000 compounds screened, about 5,700 (36%) were called active. Inconclusive results (about 24%) are left out. The call rests on the fitted dose curve; in most records, active means well fitted curve in the direction sought with a large enough effect; inconclusive means small, poorly fitted or top-dose-only effect, or effect the other way; inactive means no such curve, though single readings can be large or run the other way. The list shows a part of the results.
Tick one outcome: active, inactive

INSERT INTO assay_data (compound, tested_target, label_value) VALUES
  ('O=S(=O)(c1ccccc1)N1CCC2(CCCN(c3cccc(-c4ccccc4)c3)C2)CC1', 'Cytochrome P450 1A2 (Homo sapiens) (UniProt P05177)', 'inactive');

From here, focus on the item given below.
Query: For COc1ccc(C2/C(=C(/O)c3ccc(Cl)cc3)C(=O)C(=O)N2CCN2CCOCC2)c(OC)c1 (centres undefined) , what call appears in the results of this test?
Reply: inactive

====

target: Cytochrome P450 1A2 (Homo sapiens); experiment: Cytochrome panel assay with activity outcomes; settings: recombinant CYP, pro-luciferin dealkylation, luminescence, p450-cyp1a2; series mostly up to 57.1 µM
Among all 16,000 compounds or so, about 5,700 (36%) were called active. Another 24% or so got no clear call; they are omitted. The list shows a part of the results.
ASSAY METRIC: AC50

INSERT INTO measurements (compound, assay_metric, result_value) VALUES
  ('Cc1cnc(CNc2nc(-c3cccnc3)nc3ccccc23)cn1', 'AC50', '2510 nM (active)'),
  ('COCC(=O)N1CCC2(CC1)CN(C(=O)Nc1ccc(OC)cc1)C2', 'AC50', 'inactive'),
  ('CCC/C=C(\CCC)C(NP(=O)(c1ccccc1)c1ccccc1)c1ccc(C(F)(F)F)cc1 (stereo not drawn)', 'AC50', 'inactive');

====

target: Cytochrome P450 1A2 (Homo sapiens); assay: Cytochrome panel assay with activity outcomes; settings: recombinant CYP, pro-luciferin dealkylation, luminescence, p450-cyp1a2; series mostly up to 57.1 µM
In all, about 16,000 compounds went through this assay and about 5,700 (36%) were called active. About 24% were inconclusive and are not listed. Calls come from the whole dose curve; as a rule, active = well fitted curve in the direction sought with a large enough effect; inconclusive = small, poorly fitted or top-dose-only effect, or effect the other way; inactive = no such curve, though single readings can be large or run the other way. The list shows a part of the results.
Assign a class; possible classes are 1 for active, 0 for inactive

Query: // outcome(item) with item = C1=C(CN2CCOCC2)COc2c1cccc2OC[C@@H]1CNCCO1
Reply: 1

Query: So what was the verdict on Cc1nc2ncnn2c(C)c1CCC(=O)NCCC1=CCCCC1 in this test?
Reply: 0

Query: Fill in: this test's call for Cc1ccc(C(=O)N/N=C/c2cc(C)n(-c3ccc(Br)cc3)c2C)cc1[N+](=O)[O-] is ___
Reply: 0

Query: Status in this test for CCC(C)(C)n1nnnc1C(c1ccc(C)cc1)N1CCC(C)CC1 (stereo not given) ?
Reply: 0

Query: Each compound tested received a call. Report the one for O=c1c2ccccc2nc2n1CC/C2=C\c1ccccc1[N+](=O)[O-] .
Reply: 1

====

molecular target: Cytochrome P450 1A2 (Homo sapiens) (UniProt P05177); test: Cytochrome panel assay with activity outcomes; conditions: recombinant CYP, pro-luciferin dealkylation, luminescence, p450-cyp1a2; series mostly up to 57.1 µM
Hit rate of the full screen: of about 16,000 compounds, about 5,700 (36%) were called active. Another 24% or so got no clear call; they are omitted. Calls follow the shape of the dose curve; as a rule, active = well fitted curve in the direction sought with a large enough effect; inconclusive = small, poorly fitted or top-dose-only effect, or effect the other way; inactive = no such curve, though single readings can be large or run the other way. This is one part of the list.
Would you mind answering with one of these outcomes? active, inactive

Sample answers from the record:
INSERT INTO results (compound, label_value) VALUES
  ('CN(C)CC[C@@H](c1ccccc1)c1ccccn1', 'inactive'),
  ('Cc1ccc(C(=O)C2CCNCC2)cc1', 'inactive'),
  ('C/C(CCc1ccc2c(c1)OCO2)=N\N=C1\NC(=O)CC(C(=O)Nc2ccccc2)S1 (centres undefined)', 'active');

Continue with the next compound.
Query: So what was the verdict on CN(CCc1ccccn1)c1ccc2c(c1)C(=O)c1ccccc1-2 in this test?
Reply: active
